- System: U-118-MG (Low Grade Glioma);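 note: after 72 h of two-drug dosing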
- Test: Bliss excess, mean over the matrix (fraction); higher = more synergy
Measured quantity: Bliss excess

compound="COc1nnc2ccc(N3CCC(c4ccc(OCCN5CCN(C)C(=O)[C@H]5C)cc4)CC3)nn12 [AZD5153] + C=CCn1c(=O)c2cnc(Nc3ccc(N4CCN(C)CC4)cc3)nc2n1-c1cccc(C(C)(C)O)n1 [AZD1775] (first compound max 1 µM, partner max 1 µM)" numeric_result=-0.0235
compound="Cn1cnc2c(F)c(Nc3ccc(Br)cc3Cl)c(C(=O)NOCCO)cc21 [Selumetinib] + C[C@@H]1COCCN1C2=NC(=NC(=C2)C3(CC3)[S@](=N)(=O)C)C4=C5C=CNC5=NC=C4 [AZD6738] (first compound max 10 µM, 7x7, partner max 10 µM)" numeric_result=0.0263
compound="Cc1c2c(nn1C)CSCc1cc(n(C)n1)CSc1cc(c3ccccc3c1)OCCCc1c(C(=O)O)n(C)c3c-2c(Cl)ccc13 [AZD5991] + CCN(CCO)CCCOc1ccc2c(Nc3cc(CC(=O)Nc4cccc(F)c4)[nH]n3)ncnc2c1 [AZD2811] (first compound max 1 µM, 7x7, partner max 1 µM)" numeric_result=0.0042
compound="C[C@@H](c1ccc2nccn2c1)n1nnc2ncc(-c3cnn(C)c3)nc21 [Savolitinib] + Cc1c2c(nn1C)CSCc1cc(n(C)n1)CSc1cc(c3ccccc3c1)OCCCc1c(C(=O)O)n(C)c3c-2c(Cl)ccc13 [AZD5991] (first compound max 1 µM, 7x7, partner max 1 µM)" numeric_result=0.0095
compound="NC1(C(=O)N[C@@H](CCO)c2ccc(Cl)cc2)CCN(c2ncnc3[nH]ccc23)CC1 [Capivasertib] + COc1nnc2ccc(N3CCC(c4ccc(OCCN5CCN(C)C(=O)[C@H]5C)cc4)CC3)nn12 [AZD5153] (first compound max 10 µM, 7x7, partner max 1 µM)" numeric_result=0.057
compound="Cc1c2c(nn1C)CSCc1cc(n(C)n1)CSc1cc(c3ccccc3c1)OCCCc1c(C(=O)O)n(C)c3c-2c(Cl)ccc13 [AZD5991] + CN(C)CCCOc1ccc(-c2ccc3ncc4c(c3c2)n(C2CCOCC2)c(=O)n4C)cn1 [AZD0156] (first compound max 1 µM, 7x7, partner max 1 µM)" numeric_result=-0.0035
compound="C=CCn1c(=O)c2cnc(Nc3ccc(N4CCN(C)CC4)cc3)nc2n1-c1cccc(C(C)(C)O)n1 [AZD1775] + C1CN(CCC1(C(=O)N[C@@H](CCO)C2=CC=C(C=C2)Cl)N)C3=NC=NC4=C3C=CN4 [Capivasertib] (first compound max 3 µM, partner max 3 µM)" numeric_result=-0.0726
compound="Cc1cc2ncnn2cc1Nc1ncc2c(n1)n(C1CCOCC1)c(=O)n2C [AZD7648] + CCN(CCO)CCCOc1ccc2c(Nc3cc(CC(=O)Nc4cccc(F)c4)[nH]n3)ncnc2c1 [AZD2811] (first compound max 10 µM, 7x7, partner max 1 µM)" numeric_result=0.0172
compound="CC(=O)c1c(C)c2cnc(Nc3ccc(N4CCNCC4)cn3)nc2n(C2CCCC2)c1=O [Palbociclib] + Cc1c2c(nn1C)CSCc1cc(n(C)n1)CSc1cc(c3ccccc3c1)OCCCc1c(C(=O)O)n(C)c3c-2c(Cl)ccc13 [AZD5991] (first compound max 10 µM, 7x7, partner max 1 µM)" numeric_result=-0.0201
compound="Cc1c2c(nn1C)CSCc1cc(n(C)n1)CSc1cc(c3ccccc3c1)OCCCc1c(C(=O)O)n(C)c3c-2c(Cl)ccc13 [AZD5991] + CC1(C)CCC(CN2CCN(c3ccc(C(=O)NS(=O)(=O)c4ccc(NCC5CCOCC5)c([N+](=O)[O-])c4)c(Oc4cnc5[nH]ccc5c4)c3)CC2)=C(c2ccc(Cl)cc2)C1 [Venetoclax] (first compound max 1 µM, 7x7, partner max 1 µM)" numeric_result=-0.0328
compound="COc1cccc(OCCCN)c1-c1cc(Nc2cnc(C#N)cn2)n[nH]1 [Prexasertib] + C[C@@H]1COCCN1C2=NC(=NC(=C2)C3(CC3)[S@](=N)(=O)C)C4=C5C=CNC5=NC=C4 [AZD6738] (first compound max 1 µM, 7x7, partner max 10 µM)" numeric_result=-0.0136
compound="COc1cccc(OCCCN)c1-c1cc(Nc2cnc(C#N)cn2)n[nH]1 [Prexasertib] + O=C(c1cc(Cc2n[nH]c(=O)c3ccccc23)ccc1F)N1CCN(C(=O)C2CC2)CC1 [Olaparib] (first compound max 1 µM, 7x7, partner max 10 µM)" numeric_result=-0.0445
compound="CN(C)CCCOc1ccc(-c2ccc3ncc4c(c3c2)n(C2CCOCC2)c(=O)n4C)cn1 [AZD0156] + O=C(c1cc(Cc2n[nH]c(=O)c3ccccc23)ccc1F)N1CCN(C(=O)C2CC2)CC1 [Olaparib] (first compound max 3 µM, partner max 3 µM)" numeric_result=0.0122
compound="CC(=O)Nc1cccc(-n2c(=O)n(C3CC3)c(=O)c3c(Nc4ccc(I)cc4F)n(C)c(=O)c(C)c32)c1 [Trametinib] + Cc1nc(-c2cn3c(n2)-c2ccc(-c4cnn(C(C)(C)C(N)=O)c4)cc2OCC3)n(C(C)C)n1 [Taselisib] (first compound max 1 µM, 7x7, partner max 10 µM)" numeric_result=-0.0083
